# credit: the MegaScale stability set (Tsuboyama et al. 2023)

B1: EEHEE_rd3_1049 (parent)
chain: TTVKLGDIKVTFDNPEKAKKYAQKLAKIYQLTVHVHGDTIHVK

variants of: B1; assay: folding stability dG (cDNA display proteolysis); higher = more stable; conditions: PBS, room temperature
Would you mind sorting the entries by folding stability dG according to these classes? low band (below 1 kcal/mol), middle band (1 kcal/mol to below 2 kcal/mol), high band (2 kcal/mol or more)

Enquiry: Place this variant in its band: TTVKLGDIKVTFDNPEKAKKYAQKAAKIYQLTVHVHGDTIHVK [L25A]
Return: low band

Enquiry: Just checking, what class would you give TTVKLGDIKVTFDNPEKAKKYAQKLAKIYQLTVHVIGDTIHVK [H36I] here?
Return: high band

Enquiry: Field: class (folding stability dG) — entry: TTVKLGDIKITFDNPEKAKKYAQKLAKIYQLTVHVHGDTIHVK [V10I]
Return: high band

Enquiry: Consider TTVKLIDIKVTFDNPEKAKKYAQKLAKIYQLTVHVHGDTIHVK [G6I] . To which folding stability dG class does it belong?
Return: middle band

Enquiry: Band for TTVKLGDIKVTFDNPEKEKKYAQKLAKIYQLTVHVHGDTIHVK [A18E] ?
Return: low band

Enquiry: Which folding stability dG category applies to TTVKLGDIKVTFDNPEKAKKYAQKLAKIYQLTVHRHGDTIHVK [V35R] here?
Return: middle band

Enquiry: Assign a category based on measured folding stability dG for TTVKLGDIKVTFDNPEKAKKYAQKLAKIYQLTMHVHGDTIHVK [V33M] and give only the class name.
Return: middle band

Enquiry: Which category fits this record: ITVKLGDIKVTFDNPEKAKKYAQKLAKIYQLTVHVHGDTIHVK [T1I]
Return: high band

Enquiry: Hello team, could you let me know which band the following variant falls into: TTVKLGDIKVTFDNPEKAKKYAQKLAKIYQLTVHVHGDHIHVK [T39H]
Return: middle band

Enquiry: Kindly identify the class of TTVKLGDIKVTFDNPEKAKKYAQKLAKIYQLTVHVQGDTIHVK [H36Q] .
Return: high band

Enquiry: Sort into band: TTVKLGDIKVTFDNPEKAKKYAQKLTKIYQLTVHVHGDTIHVK [A26T]
Return: low band

Enquiry: Sort into band: TTVKLGDIKVTFDNMEKAKKYAQKLAKIYQLTVHVHGDTIHVK [P15M]
Return: high band

Enquiry: # bin lookup: classify TTVKLGDIKVTGDNPEKAKKYAQKLAKIYQLTVHVHGDTIHVK [F12G] by its folding stability dG
Return: low band

Enquiry: Any idea which band TTVKLGDIKVTFDNPEKAKKYAQKLAKIYQLTVHVHGRTIHVK [D38R] is in?
Return: middle band

Enquiry: Entry TTVKLGDIKVTFDNPEKAKKYAQKLAKIYQLTVHVHGLTIHVK [D38L] belongs to which category?
Return: middle band

Enquiry: Hi, small favor: classify TTVKLGDIKVTFDNPEKAKKYAQKLAKIQQLTVHVHGDTIHVK [Y29Q] by its folding stability dG when you get a moment.
Return: low band

Enquiry: Form: Item = TTVKLGDIKVTFDNPEKAKKYAQKLAKIYQLTVHVMGDTIHVK [H36M] ; Class = ?
Return: high band

Enquiry: Category of TTYKLGDIKVTFDNPEKAKKYAQKLAKIYQLTVHVHGDTIHVK [V3Y] , please.
Return: low band

Enquiry: In plain terms, what class is TTVKLGDMKVTFDNPEKAKKYAQKLAKIYQLTVHVHGDTIHVK [I8M] ?
Return: high band

Enquiry: // return the class label for TTVKLGDIKVTFDNPEKAKKYAQKLAGIYQLTVHVHGDTIHVK [K27G]
Return: middle band
